Test system: 786-0
Assay name: NCI tumour cell line growth inhibition, 48 h
The source made the active and inactive calls. Cut-off read from the data, not from the text of the source: active = GI50 up to about 1.1 µM and inactive = higher.
Answer with one of the outcomes given here: T (active), F (inactive)

In: Entry COC1=CC(=O)c2c(cc(COP(N)(=O)N(CCBr)CCBr)n2C)C1=O (stereo not drawn) : call = ?
Out: T

In: Entry C=C1C[C@]23CC[C@@H]4C(CO)(CO)CC(=O)C[C@]4(C)[C@@H]2C(O)C[C@H]1C3 (stereo partly drawn) : call = ?
Out: F

In: Entry OCC1OC(c2n[nH]c3c(O)ncnc23)C(O)C1O (stereo not drawn) : call = ?
Out: F

In: Entry O=C1c2ccccc2C(=O)c2nc(-c3ccccc3)c(-c3ccccc3)nc21 : call = ?
Out: F

In: Entry CCOC(=O)C1=C(c2ccccc2)NC(c2ccccc2)=C(C(=O)OCC)c2c1c(=O)cc[nH]c2=O : call = ?
Out: F

In: Entry CC(C(=O)OCc1ccccc1)(c1ccco1)N1C(=O)OC(c2ccccc2)C1c1ccccc1 (stereo not drawn) : call = ?
Out: F

In: Entry Cc1ccc([S+]([O-])c2cccs2)cc1 (stereo not drawn) : call = ?
Out: F

In: Entry CCc1cccc(C)c1NC(=O)C(=O)Cc1nc2ccccc2o1 : call = ?
Out: F

---

Tested on: NCI-H522
Assay name: NCI tumour cell line growth inhibition, 48 h
Active and inactive are the calls of the source. Rule as the data show it: active = GI50 up to about 1.1 µM and inactive = higher.
Answer with one of the outcomes given here: active, inactive

In: Entry COc1c2c(cc3oc(=O)ccc13)OC(C)(C)C=C2 [XANTHOXYLETIN] : call = ?
Out: inactive

In: Entry CN(C)c1ccc2nc3c(ccc4ccccc43)[o+]c2c1 : call = ?
Out: inactive

In: Entry C[N+](C)([O-])CCCNc1c2ccccc2nc2cccc([N+](=O)[O-])c12 : call = ?
Out: active

In: Entry O=c1[nH]c(C23CC4CC(CC(C4)C2)C3)cc2c1c(=O)oc1ccccc12 : call = ?
Out: inactive

In: Entry COC(=O)C1CCCCCCCCCCC12SCCCS2 (configuration not stated) : call = ?
Out: inactive

In: Entry COc1cc(C=O)c(-c2cc3c(cc2C2(C)OCCS2)OCO3)c(OC)c1OC (configuration not stated) : call = ?
Out: inactive

In: Entry CC(=N/NC(N)=S)/C(C)=N/NC(N)=S : call = ?
Out: inactive

In: Entry CCOC(=O)[C@@H]1ON2O[C@H](OC3CCCC3(c3ccccc3)c3ccccc3)C[C@H]3OC(=O)[C@@H]1C32 (some centres not stated) : call = ?
Out: inactive

In: Entry NC(=O)N/N=C(\Cc1cc(=O)oc2cc(O)ccc12)C(=O)Nc1ccccc1C(N)=O : call = ?
Out: inactive

In: Entry COc1cc(S(=O)(=O)Nc2ccc(-c3csc(N4C(=O)C(C)SC4c4ccccc4)n3)cc2)ccc1Cl (configuration not stated) : call = ?
Out: inactive

In: Entry COc1ccccc1NC(=S)N/N=C(/c1ccccc1)c1ccccn1 : call = ?
Out: active

In: Entry COC1=CC(=O)c2c(cc(COP(N)(=O)N(CCBr)CCBr)n2C)C1=O (configuration not stated) : call = ?
Out: active

---

Test system: UACC-62
Assay name: NCI tumour cell line growth inhibition, 48 h
Activity calls are given as the source filed them. Rule as the data show it: active = GI50 up to about 1.1 µM and inactive = higher.
Reported metric: GI50

In: So what does the record say about GI50 for COC(=O)c1cccc2cccc(C(=O)Nc3ccc(C)cc3C)c12 ?
Out: > 100 µM (inactive)

In: So what does the record say about GI50 for CC(=O)Nc1ccc(-c2nnc(SCC(=O)Nc3ccccc3C)o2)cc1 ?
Out: > 100 µM (inactive)

In: So what does the record say about GI50 for NC(=O)c1ccc2c(c1)S(=O)(=O)c1ccccc1C2=O ?
Out: > 100 µM (inactive)

---

Test system: K562
Assay name: NCI tumour cell line growth inhibition, 48 h
Calls of active or inactive are those of the source. Rule as the data show it: active = GI50 up to about 1.1 µM and inactive = higher.
Answer with one of the outcomes given here: active, inactive

In: Entry COc1cc(/C=C/C(=O)OC2C(O)C3CC(OC(=O)c4cc(OC)c(OC)c(OC)c4)CC2N3C)cc(OC)c1OC (centres undefined) : call = ?
Out: inactive

In: Entry COC1/C=C/C=C(/C)Cc2cc(O)c(Cl)c(c2)N(C)C(=O)CC(OC(=O)C(C)C)C2(C)OC2C(C)C2CC1(O)NC(=O)O2 (centres undefined) : call = ?
Out: active

In: Entry O=C(/C=C/c1ccc(OCCCCCCCCCCOc2ccc(/C=C/C(=O)c3ccc(Cl)cc3)cc2)cc1)c1ccc(Cl)cc1 : call = ?
Out: inactive

In: Entry C=C(C)[C@@]1(OC(=O)c2cc([N+](=O)[O-])cc([N+](=O)[O-])c2)C[C@@H]2CCCC[C@@H]21 : call = ?
Out: inactive

In: Entry CC1SC2=NC3=C(c4ccccc4C3=O)C(c3ccc(Br)cc3)N2C1=O (centres undefined) : call = ?
Out: inactive

In: Entry CC[C@]12C=CCN3CCC4(c5cc(/N=N/c6ccc([N+](=O)[O-])cc6)c(OC)cc5N(C)[C@H]4[C@@](O)(C(=O)OC)[C@@H]1OC(C)=O)[C@@H]32 (some centres undefined) : call = ?
Out: inactive

In: Entry S=C(NCCCCCCNC(=S)Nc1c2ccccc2nc2ccccc12)Nc1c2ccccc2nc2ccccc12 : call = ?
Out: inactive

In: Entry Cc1nc2ccccc2c(=O)n1/N=C(\N=N\c1cc(Cl)ccc1Cl)c1ccccc1 : call = ?
Out: inactive

In: Entry Cc1cccc(NC(=S)N/N=C(/c2ccccc2)c2ccccn2)c1 : call = ?
Out: active

---

System: NCI-H522
Assay name: NCI tumour cell line growth inhibition, 48 h
The source made the active and inactive calls. Rule as the data show it: active = GI50 up to about 1.1 µM and inactive = higher.
Answer with one of the outcomes given here: yes (1) (active), no (0) (inactive)

In: Entry CCCCCCC(O)C/C=C/CCCCCC/C(C(=O)OC)=C(/O)C(=O)OCC (centres undefined) : call = ?
Out: no (0)

In: Entry [N-]=[N+]=Nc1ncnc2c1sc(=S)n2-c1ccccc1 : call = ?
Out: no (0)

In: Entry O=C(/C=C1/Nc2ccc([N+](=O)[O-])cc2NC1O)c1cccc([N+](=O)[O-])c1 (centres undefined) : call = ?
Out: no (0)

In: Entry COc1cc2c(cc1O)C(c1cc(O)c(O)c(OC)c1)C(O)(C(=O)O)C(CO)C2O (centres undefined) : call = ?
Out: no (0)

In: Entry Cc1cccc(NC(=S)N/N=C(/c2ccccc2)c2ccccn2)c1 : call = ?
Out: yes (1)

In: Entry COc1ccc(C2=C(Cl)C(=O)N(c3ccc(OC)cc3OC)C(=O)C2(Cl)Cl)cc1 : call = ?
Out: no (0)

In: Entry N/N=C(/CC(O)(C(F)(F)F)C(F)(F)F)c1ccccc1 : call = ?
Out: no (0)

In: Entry C=C(C)[C@@]1(OC(=O)c2cc([N+](=O)[O-])cc([N+](=O)[O-])c2)C[C@@H]2CCCC[C@@H]21 : call = ?
Out: no (0)

In: Entry CNc1nc(=O)c(C#N)c(-c2ccc(C)cc2)s1 : call = ?
Out: no (0)

In: Entry CCOC(=O)/C=C1\C[C@H](NC(=O)OCc2ccccc2)C(=O)N1CC(=O)OCC : call = ?
Out: no (0)

In: Entry Cn1cc(-c2ccc(CCOC3CCCCO3)cc2)c2c(C#N)cccc21 (centres undefined) : call = ?
Out: no (0)

In: Entry C#CCC(N)(CO)C(=O)O (centres undefined) : call = ?
Out: no (0)

In: Entry O=C(c1ccccc1)N1C2C3CC(OCc4ccccc4)(OCc4ccccc4)C(O3)C21 (centres undefined) : call = ?
Out: no (0)

In: Entry CC(=O)OC12c3ccccc3-c3ccccc3C1C1C(=O)N(C)C(=O)C12Cl (centres undefined) : call = ?
Out: no (0)

---

Test system: IGROV-1
Assay name: NCI tumour cell line growth inhibition, 48 h
Activity calls are given as the source filed them. No stated cut-off is given here; in the data, active = GI50 up to about 1.1 µM and inactive = higher.
Answer with one of the outcomes given here: t for active, f for inactive

In: Entry O=c1oc2cc(O)ccc2c2oc3cc(O)ccc3c12 [COUMESTROL] : call = ?
Out: f

In: Entry C#CC1(O)c2ccccc2C(=O)c2ccccc21 : call = ?
Out: f

In: Entry Clc1ccc(/C=N/c2ccc(Oc3ccc(Cl)cc3)c(Cl)c2)cc1 : call = ?
Out: f

In: Entry CC(=O)c1ccc(NC(=O)C(=O)C(C(=O)/C=C/c2ccccc2)C2OC(=O)c3ccccc32)cc1 (centres undefined) : call = ?
Out: f

In: Entry C#CCC(N)(CO)C(=O)O (centres undefined) : call = ?
Out: f

In: Entry O=c1[nH]c(C23CC4CC(CC(C4)C2)C3)cc2c1c(=O)oc1ccccc12 : call = ?
Out: f

In: Entry O=[N+]([O-])c1cnccc1-n1nnc2ccccc21 : call = ?
Out: f

In: Entry COc1cc2c(c(OC)c1OC)-c1ccc(SC)c(=O)cc1[C@@H](NC(=O)c1cccc([N+](=O)[O-])c1)CC2 : call = ?
Out: t

In: Entry O=C(Cc1ccccc1)NN1C(=O)C(Cl)C1c1cc(Br)cc(Br)c1O (centres undefined) : call = ?
Out: f

In: Entry C/C(=N/NC(=S)Nc1cccc(Cl)c1)c1cccc(/C(C)=N\NC(=S)Nc2cccc(Cl)c2)n1 : call = ?
Out: f

In: Entry O=C(/C=C/c1ccc(Cl)c(Cl)c1)CCN1CCN(CCC(=O)/C=C/c2ccc(Cl)c(Cl)c2)CC1 : call = ?
Out: f

In: Entry CC(C)(C)OC(=O)CCC1NC(=O)[C@@H]2Cc3c([nH]c4ccccc34)C(C3CCCCC3)N2C1=O (some centres undefined) : call = ?
Out: f

In: Entry Cc1ccc(S(=O)(=O)NC(=O)NCC(N)=O)cc1 : call = ?
Out: f

In: Entry CC(C)=CCCC1(C)C2COC(=O)C21 (centres undefined) : call = ?
Out: f

In: Entry COc1ccccc1-c1cc(O)c2c(C)ccnc2n1 : call = ?
Out: f

In: Entry CN(C)Cc1cc(/N=N/c2ccc(Cl)cc2)cc(CN(C)C)c1O : call = ?
Out: f

In: Entry O=S(=O)(O)c1cc(S(=O)(=O)O)c2c(Nc3ccnc4ccccc34)ccc(S(=O)(=O)O)c2c1 : call = ?
Out: f

In: Entry O=[N+]([O-])c1ccc2c(c1)C1=NN(c3ccccc3)C(c3ccccc3Br)C1CCC2 (centres undefined) : call = ?
Out: f

In: Entry C[N+](C)([O-])CCCNc1c2ccccc2nc2cccc([N+](=O)[O-])c12 : call = ?
Out: t

In: Entry O=NN(CCCl)C(=O)NCCCl [CARMUSTINE] : call = ?
Out: f

In: Entry CC(=O)O[C@H]1C(=O)[C@@]2(C)C(C(OC(=O)c3ccccc3)[C@]3(O)CC(OC(=O)[C@H](OC(=O)CCC(=O)O)C(NC(=O)c4ccccc4)c4ccccc4)C(C)=C1C3(C)C)C1(OC(C)=O)COC1C[C@@H]2O (some centres undefined) : call = ?
Out: t

In: Entry Cn1cc(-c2ccc(CCOC3CCCCO3)cc2)c2c(C#N)cccc21 (centres undefined) : call = ?
Out: f

In: Entry c1ccc2cc3c(cc2c1)OP1(Oc2cccc4cccnc24)(O3)Oc2cc3ccccc3cc2O1 : call = ?
Out: f

In: Entry CC1=NN(C(=O)c2ccc(Cl)cc2)C(=O)/C1=C/c1c(O)cc(O)c2ccccc12 : call = ?
Out: f

In: Entry CC1CN=C(N(C(=O)Nc2ccc(F)c(Cl)c2)c2ccccc2)S1 (centres undefined) : call = ?
Out: f

In: Entry C#CN1C(=O)c2c(c(-c3ccccc3)c(-c3ccc(Oc4ccc(-c5c(-c6ccccc6)c6c(c(-c7ccccc7)c5-c5ccccc5)C(=O)N(C#C)C6=O)cc4)cc3)c(-c3ccccc3)c2-c2ccccc2)C1=O : call = ?
Out: f

In: Entry O=C(c1ccccc1)N1C(=S)NC(=N/c2ccccc2)/C1=N\c1ccccc1 : call = ?
Out: f

In: Entry Clc1cccc(Cl)c1/C=N/C12CC3CC(CC(C3)C1)C2 : call = ?
Out: f

In: Entry O=[N+]([O-])/C(Cl)=C(\NCCO)C(Cl)=C(Cl)Cl : call = ?
Out: f

In: Entry COc1ccc(/C(=N\NC(=N)N)C(c2ccc(OC)cc2)C2OC(=O)c3ccccc32)cc1 (centres undefined) : call = ?
Out: f

In: Entry Nc1ncnc2c1ncn2C1OC(CSCc2ccc(Cl)cc2)C(O)C1O (centres undefined) : call = ?
Out: f

In: Entry CC(/C=N/N(C)C1=NCCCCN1)=N/N(C)C1=NCCCCN1 : call = ?
Out: f

In: Entry COc1cc(S(=O)(=O)Nc2ccc(-c3csc(N4C(=O)C(C)SC4c4ccccc4)n3)cc2)ccc1Cl (centres undefined) : call = ?
Out: f

In: Entry CNc1ncccc1Nc1cc(=O)n2c3cccnc3n(C)c2c1 : call = ?
Out: f
